# Assayed Target: human TYK2 (JH2domain-pseudokinase) (Homo sapiens (Human), UniProt P29597)
# Sequence (P29597 556-888): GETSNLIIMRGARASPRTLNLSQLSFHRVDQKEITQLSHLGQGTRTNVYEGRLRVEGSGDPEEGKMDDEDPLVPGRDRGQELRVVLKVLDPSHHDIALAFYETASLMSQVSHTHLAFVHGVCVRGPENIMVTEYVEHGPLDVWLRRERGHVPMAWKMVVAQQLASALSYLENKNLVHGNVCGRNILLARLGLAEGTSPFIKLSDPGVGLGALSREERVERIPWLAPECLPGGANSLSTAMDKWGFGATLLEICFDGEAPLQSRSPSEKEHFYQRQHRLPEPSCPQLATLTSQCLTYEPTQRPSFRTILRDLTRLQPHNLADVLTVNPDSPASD
# Assay Text: TYK2 JH2 Domain Binding Assay (KINOMEscan)
# key: entry, value: Kd

[
  {
    "Compound": "CNc1cc(Nc2cccn([C@@H]3C[C@H]3F)c2=O)nc2c(C(=O)N[C@@H]3CC[C@H]3O)cnn12 [I-1091]",
    "Kd": "< 200 pM"
  },
  {
    "Compound": "CNc1cc(-c2cn(C3CCOCC3)c3ncccc23)nc2c(C(=O)N[C@H]3COC[C@H]3O)cnn12 [I-1408]",
    "Kd": "200 to 1000 pM"
  },
  {
    "Compound": "CNc1cc(Nc2cccn(-c3ncc(C)s3)c2=O)nc2c(C(=O)N[C@H]3CC[C@H]3O)cnn12",
    "Kd": "< 200 pM"
  },
  {
    "Compound": "CNc1cc(Nc2cccn(C3CCC4(CC3)OCCO4)c2=O)nc2c(C(=O)NC3CC3)cnn12",
    "Kd": "< 200 pM"
  },
  {
    "Compound": "CNc1cc(-c2cn(C3CCOCC3)c3ncccc23)nc2c(C(=O)N[C@@H]3CCC[C@@H](O)C3)cnn12 (stereo in doubt)",
    "Kd": "< 200 pM"
  },
  {
    "Compound": "CNc1cc(Nc2cccn([C@H]3C[C@@H]3F)c2=O)nc2c(C(=O)N[C@H]3CC[C@@H]3OC)cnn12",
    "Kd": "< 200 pM"
  },
  {
    "Compound": "CNc1cc(Nc2cccn(CCOC3CC3)c2=O)nc2c(C(=O)N[C@@H]3C[C@@H]3F)cnn12",
    "Kd": "< 200 pM"
  },
  {
    "Compound": "CNc1cc(Nc2cc(Cl)cn(C3CCN(C)CC3)c2=O)nc2c(C(=O)N[C@H]3CC[C@@H]3O)cnn12",
    "Kd": "< 200 pM"
  },
  {
    "Compound": "CNc1cc(Nc2cccn([C@H]3CCC[C@@H]3OC)c2=O)nc2c(C(=O)N[C@@H]3C[C@@H]3F)cnn12 [I-442]",
    "Kd": "200 to 1000 pM"
  },
  {
    "Compound": "CNc1cc(Nc2cccn([C@H]3CCN(CCC#N)C3)c2=O)nc2c(C(=O)NC3CC3)cnn12",
    "Kd": "200 to 1000 pM"
  },
  {
    "Compound": "CNc1cc(Nc2cccnc2OC(F)F)nc2c(C(N)=O)cnn12",
    "Kd": "200 to 1000 pM"
  },
  {
    "Compound": "CCOc1ccc(-n2cccc(Nc3cc(NC)n4ncc(C(=O)NC5CC5)c4n3)c2=O)nn1",
    "Kd": "200 to 1000 pM"
  },
  {
    "Compound": "CNc1cc(Nc2cccnc2OC2CCCCC2)nc2c(C(=O)NC3CCC3)cnn12",
    "Kd": "1000 to 10000 pM"
  },
  {
    "Compound": "CNc1cc(Nc2cnn(C)c2)nc2c(C(N)=O)cnn12",
    "Kd": "1000 to 10000 pM"
  },
  {
    "Compound": "CNc1cc(Nc2cccn([C@@H]3CC[C@@H]3O)c2=O)nc2c(C(=O)N[C@@H]3CC[C@H]3OC)cnn12",
    "Kd": "< 200 pM"
  },
  {
    "Compound": "CNc1cc(Nc2cccn([C@@H]3CCCOC3)c2=O)nc2c(C(=O)N[C@H]3CC[C@@H]3O)cnn12",
    "Kd": "< 200 pM"
  },
  {
    "Compound": "CNc1cc(Nc2cccn([C@H]3CCC[C@@H](C#N)C3)c2=O)nc2c(C(=O)N[C@@H]3C[C@@H]3F)cnn12 [I-1360]",
    "Kd": "< 200 pM"
  },
  {
    "Compound": "CNc1cc(Nc2cccn([C@H]3CCCN(C)C3)c2=O)nc2c(C(=O)NC3CC3)cnn12",
    "Kd": "200 to 1000 pM"
  },
  {
    "Compound": "CNc1cc(Nc2cc(F)cn(-c3ccc(C)nn3)c2=O)nc2c(C(=O)N[C@H]3C[C@H]3F)cnn12",
    "Kd": "< 200 pM"
  },
  {
    "Compound": "CNc1cc(Nc2cccn([C@@H]3CCC[C@H](O)C3)c2=O)nc2c(C(=O)N[C@@H]3CC[C@H]3OC)cnn12",
    "Kd": "< 200 pM"
  },
  {
    "Compound": "CNc1cc(Nc2cccn(C3CCN(CC(F)F)CC3)c2=O)nc2c(C(=O)N[C@H]3C[C@H]3F)cnn12",
    "Kd": "200 to 1000 pM"
  },
  {
    "Compound": "CNc1cc(Nc2cccn(CCOC3CC3)c2=O)nc2c(C(=O)N[C@@H]3CC[C@H]3O)cnn12 [I-513]",
    "Kd": "< 200 pM"
  },
  {
    "Compound": "CNc1cc(Nc2cccn(C3CCOCC3)c2=O)nc2c(C(=O)N[C@H]3CCCC[C@]3(C)O)cnn12",
    "Kd": "< 200 pM"
  }
]
